Origin of the recorded values: patent US11690850B2

Test system: human monocytic cell line U937
ASSAY: Human U937 Cellular Necroptosis Assay
Type: cell-based
EXPERIMENTAL CONTEXT: U-937; U937 cells stimulated with 25 ng/mL human TNFalpha and 25 μM z-VAD-FMK, 22 hr, viability by Cell Titer-Glo 2.0; average value across multiple runs; read-out: hU937 IC50
ASSAY READOUT: pIC50
Give only the number. pIC50 is defined as minus log10 of concentration in molar units.

Would you please look over these solved cases?
{"COMPOUND": "Cc1cc(=O)c(C(=O)Nc2cc(Cl)c3c(c2)NC(=O)C3)nn1-c1ccccc1", "pIC50": 5.23}
{"COMPOUND": "Cc1cc(=O)c(C(=O)NC2CCc3cc(F)cc(F)c3NC2)nn1-c1ccccc1 (stereo not shown)", "pIC50": 5.00}
{"COMPOUND": "Cc1cc(=O)c(C(=O)NC2CCn3nccc3N(C)C2=O)nn1-c1ccccc1 (stereo not shown)", "pIC50": 6.65}

Below: the item to evaluate.
Lookup: Complete the entry with pIC50 for Cc1cc(=O)c(C(=O)NC2CCc3ccccc3NC2=O)nn1-c1ccc(F)cc1 (stereo not shown)
Found: 7.39

---

Test system: human monocytic cell line U937
ASSAY: Human U937 Cellular Necroptosis Assay
Assay type: cell-based
EXPERIMENTAL CONTEXT: U-937; U937 cells stimulated with 25 ng/mL human TNFalpha and 25 μM z-VAD-FMK, 22 hr, viability by Cell Titer-Glo 2.0; average value across multiple runs; read-out: hU937 IC50
ASSAY READOUT: IC50 (nM)
Just the number please, in nM, no unit attached.

Would you please look over these solved cases?
{"MOLECULE": "Cc1cc(=O)c(C(=O)NC2CCc3ccccc3NC2=O)nn1-c1ccc(Cl)cc1 (stereo not drawn)", "TARGET UNDER TEST": "human monocytic cell line U937", "UNIT DESCRIPTOR": "nM", "MEASURED RESULT": 80.4}
{"MOLECULE": "Cc1ccc(-n2nc(C(=O)N[C@H]3COc4cc(C#N)ccc4N(C)C3=O)c(=O)cc2C)cc1F", "TARGET UNDER TEST": "human monocytic cell line U937", "UNIT DESCRIPTOR": "nM", "MEASURED RESULT": 67}

Lookup: Complete the entry with IC50 for Cc1cc(=O)c(C(=O)Nc2cccc(Cl)c2F)nn1-c1ccccc1
Found: 136
